tgt: hTF (Thromborel S) (human, UniProt P13726 33-295)
Sequence (P13726 33-295 limits assumed): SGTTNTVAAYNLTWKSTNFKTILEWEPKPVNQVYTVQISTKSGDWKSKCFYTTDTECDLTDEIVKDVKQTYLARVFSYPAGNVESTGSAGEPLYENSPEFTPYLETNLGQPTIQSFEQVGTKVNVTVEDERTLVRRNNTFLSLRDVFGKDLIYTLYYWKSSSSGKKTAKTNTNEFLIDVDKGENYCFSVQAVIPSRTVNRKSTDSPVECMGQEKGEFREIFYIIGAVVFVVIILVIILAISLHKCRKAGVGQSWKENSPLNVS
protocolNotes: cell-based or functional assay
metricName: Calculated concentration (ng/ml) at 250 ng/ml added (ng/mL)
Write the number in ng/mL without appending the unit.

Exercise: Could you tell me which Calculated concentration (ng/ml) at 250 ng/ml added is on file for anti-human TF antibody N55D mutant (antibody, human IgG4 S228P, kappa, V domains shown) VH: QVQLLESGAVLARPGTSVKISCKASGFNIKDYYMHWVKQRPGQGLEWIGGNDPADGHSMYDPKFQGRVTITADTSTSTVFMELSSLRSEDTAVYYCARDSGYAMDYWGQGTLVTVSS VL: DIQMTQSPSSLSASVGDRVTITCKASQDIKSFLSWYQQKPEKAPKSLIYYATSLADGVPSRFSGSGSGTDYTLTISSLQPEDFATYYCLQHGESPYTFGGGTKVEIKR ?
Solution: 49.8
